Test system: MDCK cells
EXPERIMENT: in vitro
Assay type: cell-based, canine
EXPERIMENTAL_PARAMETERS: dog, 72 h, 100 µmol·L−1
REPORTED_ENDPOINT: MDCK cells survival rate (%)
Numbers only, in %.

For orientation, consider the following solved cases.
O=C(c1ccc(Nc2ccnc3cc(C(F)(F)F)ccc23)cc1)N1CCOCC1 [Compound G12]    120.48
CCCNC(=O)c1ccc(Nc2ccnc3cc(C(F)(F)F)ccc23)cc1 [Compound G03]    144.22
COc1ccccc1OCCNC(=O)c1ccc(Nc2ccnc3c(C)cccc23)cc1 [Compound G20]    8.66

Count: 3. Required value per item: MDCK cells survival rate.
1. CC(C)NC(=O)c1ccc(Nc2ccnc3cc(C(F)(F)F)ccc23)cc1 [Compound G02]
2. O=C(c1ccc(Nc2ccnc3cc(C(F)(F)F)ccc23)cc1)N1CCN(c2ccc(Cl)cc2)CC1 [Compound G17]
3. O=C(NCCCO)c1ccc(Nc2ccnc3cc(C(F)(F)F)ccc23)cc1 [Compound G05]

[A]
[203.79, 51.32, 111.87]

Please give MDCK cells survival rate, item by item, for the list that follows.
1. Cc1ccccc1N1CCN(C(=O)c2ccc(Nc3ccnc4cc(C(F)(F)F)ccc34)cc2)CC1 [Compound G13]
2. COc1ccccc1OCCNC(=O)c1ccc(Nc2ccnc3ccc(Cl)cc23)cc1 [Compound G25]

[A]
1: 65.91; 2: 79.32

====

Test system: influenza virus A/WSN/33 (H1N1)
EXPERIMENT: Plaque inhibition assay in MDCK cells
Type: cell-based
EXPERIMENTAL_PARAMETERS: MDCK cells
For each entry below, report its pIC50 value.
One number for each entry, as −log10 of the molar value.

Cc1onc(-c2ccccc2)c1C(=O)N1CCN(c2ccc([N+](=O)[O-])cc2Cl)CC1 [nucleozin, reference compound]    6.82

[Q] Query pIC50 for COc1ccccc1OCCNC(=O)c1ccc(Nc2ccnc3cc(C(F)(F)F)ccc23)cc1
[A] 6.64

====

Would you kindly list HEK293T cells survival rate for each of these compounds?
Test system: HEK293T cells
EXPERIMENT: in vitro
Assay type: cell-based
EXPERIMENTAL_PARAMETERS: human, 72 h, 50 µmol·L−1
Method: The 3-(4,5-dimethylthiazol-2-yl)-2,5-diphenyltetrazolium bromide (MTT) method was performed to assess the cytotoxicity of target compounds in MDCK cells and HEK293T cells. Firstly, MDCK cells or HEK293T cells were seeded into the 96-well plate. Then, the media containing test compounds replaced the growth media after 48 h. […] Finally, absorbance was read at 620 nm using an ELISA plate reader (Tecan Sunrise) after 3 h of further incubation at 37 °C. […]
One number for each entry, in %.

Sample records with HEK293T cells survival rate:
COc1ccccc1OCCNC(=O)c1ccc(Nc2ccnc3c(C)cccc23)cc1    80.21
O=C(c1ccc(Nc2ccnc3cc(C(F)(F)F)ccc23)cc1)N1CCN(c2ccc(OC(F)(F)F)cc2)CC1    89.01
O=C(NCCCN1CCOCC1)c1ccc(Nc2ccnc3cc(C(F)(F)F)ccc23)cc1    98.07

// for each compound in input: emit HEK293T cells survival rate
1. Cc1ccc(N2CCN(C(=O)c3ccc(Nc4ccnc5cc(C(F)(F)F)ccc45)cc3)CC2)cc1
2. COc1ccccc1OCCNC(=O)c1ccc(Nc2ccnc3ccccc23)cc1
3. COc1ccccc1OCCNC(=O)c1ccc(Nc2ccnc3cc([N+](=O)[O-])ccc23)cc1

[A]
[76.77, 97.40, 96.62]

====

Exercise: for every item that follows, state its recorded MDCK cells survival rate.
Test system: MDCK cells
EXPERIMENT: in vitro
Format: cell-based, canine
EXPERIMENTAL_PARAMETERS: dog, 72 h, 50 µmol·L−1
Answers are plain numbers, in %.

Here are 3 compounds together with their reported answers.
O=C(NCCCN1CCOCC1)c1ccc(Nc2ccnc3cc(C(F)(F)F)ccc23)cc1 [Compound G08]    75.20
O=C(NCCCO)c1ccc(Nc2ccnc3cc(C(F)(F)F)ccc23)cc1 [Compound G05]    101.63
O=C(c1ccc(Nc2ccnc3cc(C(F)(F)F)ccc23)cc1)N1CCN(c2cccc(C(F)(F)F)c2)CC1 [Compound G16]    92.23

Please turn your attention to the following entry.
[Q] // Input: COc1ccccc1OCCNC(=O)c1ccc(Nc2ccnc3ccccc23)cc1 [Compound G19] . Output its MDCK cells survival rate only.
[A] 102.17

====

Tested on: influenza virus A/WSN/33 (H1N1)
EXPERIMENT: microbe, parasite or virus in culture
Assay type: cell-based
EXPERIMENTAL_PARAMETERS: H1N1|WSN, MDCK, 72 h, read-out: Antiviral activity in CPE assay
I'd be grateful if you could share measured inhibition at 50 µM for these entries.
One number for each entry, in %.

Some solved cases for reference:
COc1ccccc1OCCNC(=O)c1ccc(Nc2ccnc3cc(OC(F)(F)F)ccc23)cc1    106
COc1ccccc1OCCNC(=O)c1ccc(Nc2ccnc3c(C)cccc23)cc1    30.9
COc1ccccc1OCCNC(=O)c1ccc(Nc2ccnc3ccc(Cl)cc23)cc1    22.5

[Q] For O=C(c1ccc(Nc2ccnc3cc(C(F)(F)F)ccc23)cc1)N1CCN(c2ccc(OC(F)(F)F)cc2)CC1 , write its inhibition at 50 µM.
[A] 35.3

====

Please respond with reported inhibition at 100 µM for every item in the list.
ASSAY_SYSTEM: ribonucleoprotein (RNP) of influenza virus (Influenza A virus, UniProt P15659)
EXPERIMENT: cell-based
EXPERIMENTAL_PARAMETERS: HEK-293T; concentration 100 µM; read-out: RNP Reconstitution Assay Inhibition Rate
One number for each entry, in %.

Below are worked cases with known answers.
COc1ccccc1OCCNC(=O)c1ccc(Nc2ccnc3cc(OC(F)(F)F)ccc23)cc1 [Compound G22]    43.9
COc1ccccc1OCCNC(=O)c1ccc(Nc2ccnc3cc([N+](=O)[O-])ccc23)cc1 [Compound G23]    56.6

# ---- query compound ----
[Q] Specify inhibition at 100 µM for O=C(NCCO)c1ccc(Nc2ccnc3cc(C(F)(F)F)ccc23)cc1 [Compound G04] and stop.
[A] 14

====

What HEK293T cells survival rate was measured for each of the following?
System: HEK293T cells
EXPERIMENT: in vitro
Assay type: cell-based
EXPERIMENTAL_PARAMETERS: human, 72 h, 3.125 µmol·L−1
Answers are plain numbers, in %.

The cases that follow already have their HEK293T cells survival rate on record.
O=C(c1ccc(Nc2ccnc3cc(C(F)(F)F)ccc23)cc1)N1CCN(c2ccc(Cl)cc2)CC1 [Compound G17]    86.81
COc1ccccc1OCCNC(=O)c1ccc(Nc2ccnc3c(C)cccc23)cc1 [Compound G20]    96.66
COc1ccccc1OCCNC(=O)c1ccc(Nc2ccnc3cc([N+](=O)[O-])ccc23)cc1 [Compound G23]    93.57
O=C(NCc1ccccc1)c1ccc(Nc2ccnc3cc(C(F)(F)F)ccc23)cc1 [Compound G11]    129.49
COc1ccccc1OCCNC(=O)c1ccc(Nc2ccnc3ccc(Cl)cc23)cc1 [Compound G25]    104.71

Parameter requested: HEK293T cells survival rate. Apply to each item below.
1. O=C(NCCO)c1ccc(Nc2ccnc3cc(C(F)(F)F)ccc23)cc1 [Compound G04]
2. O=C(c1ccc(Nc2ccnc3cc(C(F)(F)F)ccc23)cc1)N1CCN(c2ccc(OC(F)(F)F)cc2)CC1 [Compound G15]
3. CCNC(=O)c1ccc(Nc2ccnc3cc(C(F)(F)F)ccc23)cc1 [Compound G01]
4. O=C(NCCCN1CCOCC1)c1ccc(Nc2ccnc3cc(C(F)(F)F)ccc23)cc1 [Compound G08]
5. CCCNC(=O)c1ccc(Nc2ccnc3cc(C(F)(F)F)ccc23)cc1 [Compound G03]
6. CC(C)NC(=O)c1ccc(Nc2ccnc3cc(C(F)(F)F)ccc23)cc1 [Compound G02]
7. O=C(c1ccc(Nc2ccnc3cc(C(F)(F)F)ccc23)cc1)N1CCN(c2cccc(C(F)(F)F)c2)CC1 [Compound G16]
8. COc1ccccc1OCCNC(=O)c1ccc(Nc2ccnc3cc(C)ccc23)cc1 [Compound G21]

[A]
[112.00, 105.64, 91.00, 100.86, 98.97, 95.91, 89.31, 117.39]

Dear colleague, could you send me HEK293T cells survival rate for each of the items below? Thanks.
1. Cc1ccc(N2CCN(C(=O)c3ccc(Nc4ccnc5cc(C(F)(F)F)ccc45)cc3)CC2)cc1 [Compound G14]
2. Cc1ccccc1N1CCN(C(=O)c2ccc(Nc3ccnc4cc(C(F)(F)F)ccc34)cc2)CC1 [Compound G13]
3. CCOc1ccc(N2CCN(C(=O)c3ccc(Nc4ccnc5cc(C(F)(F)F)ccc45)cc3)CC2)cc1 [Compound G18]

[A]
105.78
99.14
98.42

====

System: influenza virus A/WSN/33 (H1N1)
EXPERIMENT: organism not typed
Type: cell-based
EXPERIMENTAL_PARAMETERS: MDCK, 72 h; read-out: Cytopathic Effect Assay (A/WSN/33, H1N1) EC50
REPORTED_ENDPOINT: EC50

Known results for compounds:
COc1ccccc1OCCNC(=O)c1ccc(Nc2ccnc3c(C)cccc23)cc1 [Compound G20]    > 100 µM
O=C(NCCO)c1ccc(Nc2ccnc3cc(C(F)(F)F)ccc23)cc1 [Compound G04]    > 100 µM

Lab note: next compound to report on.
[Q] Name the recorded EC50 of Cc1ccc(N2CCN(C(=O)c3ccc(Nc4ccnc5cc(C(F)(F)F)ccc45)cc3)CC2)cc1 [Compound G14] , assay system influenza virus A/WSN/33 (H1N1).
[A] > 100 µM
